Catalogue of molecules with associated pKi
target: D(1A) dopamine receptor (Rattus norvegicus); assay: Binding affinity for rat striatum Dopamine receptor D1 by […] displacement.
Remember the convention: pKi equals -log10 of concentration in molar.

Below, 3 molecules whose answers are already recorded.
1) COc1ccccc1N1CCN(CCCCNC(=O)c2ccc3ccccc3n2)CC1: 5.87
2) O=C(NCCCCN1CCN(c2ccc(Cl)c(Cl)c2)CC1)c1cc2ccccc2o1: 5.78
3) COc1ccccc1N1CCN(CCCCN2CCn3c(cc4ccccc43)C2=O)CC1: 5.80

Alright, here's another molecule for you.
Incoming: Indicate the recorded pKi value for this molecule: O=C(NCCCCN1CCN(c2ccc(Cl)cc2Cl)CC1)c1cc2ccccc2cn1
Outgoing: 5.11

* * *

Target: Alpha-2A adrenergic receptor (Rattus norvegicus, UniProt P22909)
Sequence (P22909 whole entry): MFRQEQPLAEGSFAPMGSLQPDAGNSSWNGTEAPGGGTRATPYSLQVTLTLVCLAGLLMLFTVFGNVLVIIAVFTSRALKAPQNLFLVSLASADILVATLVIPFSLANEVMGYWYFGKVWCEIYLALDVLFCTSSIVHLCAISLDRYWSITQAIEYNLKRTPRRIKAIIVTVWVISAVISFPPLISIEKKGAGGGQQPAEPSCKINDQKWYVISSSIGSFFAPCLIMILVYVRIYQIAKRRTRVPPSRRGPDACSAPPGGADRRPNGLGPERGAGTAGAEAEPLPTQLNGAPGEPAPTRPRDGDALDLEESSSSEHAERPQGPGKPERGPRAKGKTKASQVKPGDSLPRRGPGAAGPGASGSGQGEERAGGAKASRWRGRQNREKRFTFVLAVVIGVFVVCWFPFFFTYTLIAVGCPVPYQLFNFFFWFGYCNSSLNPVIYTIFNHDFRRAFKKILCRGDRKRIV
Assay: Binding affinity for rat cortex Alpha-2 adrenergic receptor was determined using [3H]-RX 81002 binding
endpoint: pKi
Remember the convention: pKi equals -log10 of concentration in molar.

Below, 2 molecules whose answers are already recorded.
1. COc1ccccc1N1CCN(CCCCNC(=O)c2ccc3ccccc3c2)CC1: 7.08
2. COc1ccccc1N1CCN(CCCCN2CCn3c(cc4ccccc43)C2=O)CC1: 7.05

Alright, here's another molecule for you.
Incoming: Indicate the recorded pKi value for this molecule: COc1ccccc1N1CCN(CCCCNC(=O)c2cc3ccccc3[nH]2)CC1
Outgoing: 7.12

* * *

biological target: D(1A) dopamine receptor (Rattus norvegicus, UniProt P18901); test: Binding affinity for rat striatum Dopamine receptor D1 by […] displacement.
Sequence (P18901 whole entry): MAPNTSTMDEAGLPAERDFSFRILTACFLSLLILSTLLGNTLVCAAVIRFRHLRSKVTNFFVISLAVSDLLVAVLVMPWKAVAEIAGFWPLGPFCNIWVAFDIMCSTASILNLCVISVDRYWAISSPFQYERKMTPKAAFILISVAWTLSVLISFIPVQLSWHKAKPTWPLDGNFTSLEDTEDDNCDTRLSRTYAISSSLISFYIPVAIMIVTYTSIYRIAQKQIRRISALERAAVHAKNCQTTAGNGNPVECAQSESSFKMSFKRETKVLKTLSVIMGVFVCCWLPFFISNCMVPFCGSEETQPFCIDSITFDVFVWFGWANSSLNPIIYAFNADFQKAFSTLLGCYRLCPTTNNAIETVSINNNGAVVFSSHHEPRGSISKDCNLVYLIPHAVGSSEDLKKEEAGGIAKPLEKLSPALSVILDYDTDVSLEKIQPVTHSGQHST
endpoint: Ki (nM)
Give the value, in units of nM, as a plain number.

Below, 5 compounds whose answers are already recorded.
1) COc1ccccc1N1CCN(CCCCNC(=O)c2nc3ccccc3n3cccc23)CC1: 778
2) COc1ccccc1N1CCN(CCCCNC(=O)c2cnc3ccccc3n2)CC1: 1440
3) COc1ccccc1N1CCN(CCCCNC(=O)c2cc3ccccc3[nH]2)CC1: 970
4) O=C(NCCCCN1CCN(c2ccc(Cl)cc2Cl)CC1)c1cc2ccccc2o1: 7660
5) COc1ccccc1N1CCN(CCCCNC(=O)c2cc3ccccc3cn2)CC1: 1480

Incoming: Give Ki; test system D(1A) dopamine receptor (Rattus norvegicus, UniProt P18901); compound COc1ccccc1N1CCN(CC2CCN(C(=O)c3cc4ccccc4o3)CC2)CC1
Outgoing: 2680

* * *

target: UniProt:P18901; experiment: Binding affinity for rat striatum Dopamine receptor D1 by […] displacement.
endpoint: Ki

Below, 3 compounds whose answers are already recorded.
1. COc1ccccc1N1CCN(CCNCc2coc(-c3ccc4ccccc4c3)n2)CC1: > 10 µM
2. COc1ccccc1N1CCN(CCNCc2coc(-c3cc4ccccc4o3)n2)CC1: > 10 µM
3. O=C(NCCCCN1CCN(c2ccc(Cl)cc2Cl)CC1)c1cc2ccccc2[nH]1: > 10 µM

Incoming: Indicate the recorded Ki value for this compound: O=C(NCCCCN1CCN(c2ccc(Cl)cc2Cl)CC1)c1cc2cc(Cl)ccc2[nH]1
Outgoing: > 10 µM

Every entry's value here was drawn from ChEMBL document CHEMBL1145068.
